- Test system: 349418-098-R-PDC complex spheroid viability;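 also: spheroids exposed to compound for seven days before viability readout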
- ASSAY: Anticancer human tumor 349418-098-R-PDC patient-derived lung adenocarcinoma cell line growth inhibition [RAS]
- CONDITION_SUMMARY: second compound 0.0949 µM; first compound 1 µM; stronger effect = lower value
Overview of recorded viability, T/C for various compounds
OBSERVED_PROPERTY: viability, T/C (%)

# COMPOUND, OBSERVED_VALUE
rows = [
    ("Nc1ccn(C2OC(CO)C(O)C2(F)F)c(=O)n1 (centres undefined) + CCn1c(-c2cc(N3CCN(C)CC3)cnc2C(C)OC)c2c3cc(ccc31)-c1csc(n1)CC(NC(=O)C1CC1C)C(=O)N1CCCC(N1)C(=O)OCC(C)(C)C2", 4.88),
    ("CC(Nc1ccc2c(c1)OCCn1cc(N3C(=O)OCC3C(F)F)nc1-2)C(N)=O (centres undefined) + CCn1c(-c2cc(N3CCN(C)CC3)cnc2C(C)OC)c2c3cc(ccc31)-c1csc(n1)CC(NC(=O)C1CC1C)C(=O)N1CCCC(N1)C(=O)OCC(C)(C)C2", 21.5),
    ("NC1c2ccccc2OC12CCN(c1cnc3c(N4CCCc5ncccc54)n[nH]c3n1)CC2 (centres undefined) + CCn1c(-c2cccnc2C(C)OC)c2c3cc(ccc31)N1CCOC(CC(NC(=O)C(C(C)C)N(C)C(=O)C3(F)CCN(C(=O)C#CC(C)(C)N(C)C)CC3)C(=O)N3CCCC(N3)C(=O)OCC(C)(C)C2)C1", 91.3),
    ("Cc1nc(N2CCC3(CC2)COC(C)C3N)c(CO)nc1Sc1ccnc(N)c1Cl (centres undefined) + CCn1c(-c2cccnc2C(C)OC)c2c3cc(ccc31)N1CCOC(CC(NC(=O)C(C(C)C)N(C)C(=O)C3(F)CCN(C(=O)C#CC(C)(C)N(C)C)CC3)C(=O)N3CCCC(N3)C(=O)OCC(C)(C)C2)C1", 87.9),
]
